Entries and their measured hERG follow.
- testSystem: hERG potassium ion channel (Homo sapiens, UniProt Q12809)
- Sequence (Q12809 whole entry): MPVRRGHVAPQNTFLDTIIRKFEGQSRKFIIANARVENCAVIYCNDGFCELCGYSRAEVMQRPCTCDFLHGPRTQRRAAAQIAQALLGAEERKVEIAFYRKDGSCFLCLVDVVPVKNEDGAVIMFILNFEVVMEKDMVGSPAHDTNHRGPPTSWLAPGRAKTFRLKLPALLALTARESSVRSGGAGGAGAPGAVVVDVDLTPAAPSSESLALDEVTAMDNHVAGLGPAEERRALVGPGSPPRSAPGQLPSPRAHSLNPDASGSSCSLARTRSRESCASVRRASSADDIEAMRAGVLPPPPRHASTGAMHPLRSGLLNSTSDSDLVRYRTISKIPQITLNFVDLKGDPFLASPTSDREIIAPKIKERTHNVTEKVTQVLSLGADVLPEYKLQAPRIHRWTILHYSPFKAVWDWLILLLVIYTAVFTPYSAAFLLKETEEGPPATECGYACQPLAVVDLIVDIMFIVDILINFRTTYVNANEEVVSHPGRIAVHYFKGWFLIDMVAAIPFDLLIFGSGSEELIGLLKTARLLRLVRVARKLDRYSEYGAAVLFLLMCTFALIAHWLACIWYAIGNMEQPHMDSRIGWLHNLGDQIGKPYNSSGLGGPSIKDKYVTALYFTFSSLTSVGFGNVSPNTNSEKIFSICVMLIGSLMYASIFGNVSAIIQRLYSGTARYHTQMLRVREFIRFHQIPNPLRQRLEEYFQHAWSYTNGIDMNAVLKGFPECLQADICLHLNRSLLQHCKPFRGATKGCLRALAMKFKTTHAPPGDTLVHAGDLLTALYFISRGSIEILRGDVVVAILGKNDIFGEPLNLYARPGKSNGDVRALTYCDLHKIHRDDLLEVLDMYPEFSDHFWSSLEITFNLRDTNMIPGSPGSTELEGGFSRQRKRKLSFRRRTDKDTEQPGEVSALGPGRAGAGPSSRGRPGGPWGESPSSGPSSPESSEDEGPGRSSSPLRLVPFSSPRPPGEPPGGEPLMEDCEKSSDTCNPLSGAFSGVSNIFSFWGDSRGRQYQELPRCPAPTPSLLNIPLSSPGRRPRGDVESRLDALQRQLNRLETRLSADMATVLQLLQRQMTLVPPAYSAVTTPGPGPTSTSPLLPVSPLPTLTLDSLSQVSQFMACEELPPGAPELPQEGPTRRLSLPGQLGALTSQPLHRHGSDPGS
- protocolNotes: hERG patch clamp assay (% inhibition at 10 μM)
- assaySetup: % inhibition at 10 μM, patch clamp
Give your result in % as a bare value.

Inquiry: Return reported hERG; argument: CSc1ccc(-c2nc(NCCN3CCCC3)nc(C(Cl)(Cl)Cl)n2)cc1
Reply text: 95

Inquiry: Return reported hERG; argument: COc1cccc(-c2nc(NCCN3CCCC3)nc(C(Cl)(Cl)Cl)n2)c1
Reply text: 100

Inquiry: Return reported hERG; argument: CSc1ccc(-c2nc(NCCC3CCCN3C)nc(C(Cl)(Cl)Cl)n2)cc1 (stereo not drawn)
Reply text: 38

Inquiry: Return reported hERG; argument: CN1CCC(Nc2nc(-c3ccccc3)nc(C(Cl)(Cl)Cl)n2)CC1
Reply text: 107

Inquiry: Return reported hERG; argument: CN1CCN(c2nc(-c3ccc([S+](C)[O-])cc3)nc(C(Cl)(Cl)Cl)n2)CC1 (stereo not drawn)
Reply text: 41

Inquiry: Return reported hERG; argument: CN1CCC(Nc2nc(-c3cccc(C(F)(F)F)c3)nc(C(Cl)(Cl)Cl)n2)CC1
Reply text: 80

Inquiry: Return reported hERG; argument: FC(F)(F)c1cccc(-c2nc(N3CCCNCC3)nc(C(Cl)(Cl)Cl)n2)c1
Reply text: 28

Inquiry: Return reported hERG; argument: CS(=O)(=O)c1ccc(-c2nc(N3CCCNCC3)nc(C(Cl)(Cl)Cl)n2)cc1
Reply text: 65

Inquiry: Return reported hERG; argument: ClC(Cl)(Cl)c1nc(-c2ccc3ccccc3c2)nc(N2CCCNCC2)n1
Reply text: 18
